Just for reference, ChEMBL document CHEMBL4477218 is where these values come from.

tested on: Staphylococcus aureus; assay: Antibacterial activity against TMP/methicillin-resistant Staphylococcus aureus harboring DHFR F98Y mutant after 18 hrs by CLSI M100-S16 method; format: functional
Attribute: MIC
Report only the number, with the unit µg/mL understood.

# example entries with known answers
CCc1nc(N)nc(N)c1C#C[C@H](C)c1cc2c(c(-c3ccncc3)c1)OCO2; 1.25
CCc1nc(N)nc(N)c1C#CCc1cc(-c2ccc(C(=O)O)cc2)ccc1OC; 0.156
CCc1nc(N)nc(N)c1C#CC(C)c1cc2c(c(-c3ccncc3)c1)OCO2 (stereo not given); 1.25
CCc1nc(N)nc(N)c1C#CCc1cc(OC)cc(-c2ccc(C(=O)O)cc2)c1; 0.156

Proceeding to the next molecule to report its MIC.
Bench note: what MIC did CCc1nc(N)nc(N)c1C#C[C@H](C)c1cc(OC)cc(-c2ccc(C(=O)O)cc2)c1 show?
0.0781
